// logD lookup, one value per entry
experiment: Lipophilicity, log D of the compound at pH 7.4; format: physicochemical; conditions: buffer
property: logD

[
  {
    "compound": "O=C(NCC1CCN(Cc2ccc(NS(=O)(=O)C3CCCCC3)cc2)CC1)c1c[nH]c2ccccc12",
    "property": "logD",
    "recorded_result": 0.5
  },
  {
    "compound": "O=C(OCC1CCN(CC(O)CO)CC1)c1c2n(c3ccccc13)CCCO2 (stereo not drawn)",
    "property": "logD",
    "recorded_result": 0.2
  },
  {
    "compound": "O=C(OCC1CCN(CC2C3CC4C2C4C3C(=O)O)CC1)c1c2n(c3ccccc13)CCCO2 (stereo not drawn)",
    "property": "logD",
    "recorded_result": 0.7
  },
  {
    "compound": "CC(C(=O)O)c1ccc(CN2CCC(COC(=O)c3c4n(c5ccccc35)CCCO4)CC2)cc1 (stereo not drawn)",
    "property": "logD",
    "recorded_result": 1.1
  },
  {
    "compound": "CC(C)CS(=O)(=O)Nc1ccc(CN2CCC(CNC(=O)c3c4n(c5ccccc35)CCCO4)CC2)cc1",
    "property": "logD",
    "recorded_result": 2.2
  },
  {
    "compound": "O=C(NCC1CCN(Cc2ccc(NS(=O)(=O)Cc3ccccc3)cc2)CC1)c1c[nH]c2ccccc12",
    "property": "logD",
    "recorded_result": 1.2
  },
  {
    "compound": "CC(C)CS(=O)(=O)Nc1ccc(CN2CCC(CNC(=O)c3cccc4c3OCCO4)CC2)cc1",
    "property": "logD",
    "recorded_result": 1.8
  },
  {
    "compound": "CS(=O)(=O)Nc1ccc(CN2CCC(CNC(=O)c3cccc4c3OCCO4)CC2)cc1",
    "property": "logD",
    "recorded_result": 0.5
  },
  {
    "compound": "O=C(NCC1CCN(Cc2ccc(NS(=O)(=O)C3CCCCC3)cc2)CC1)c1c2n(c3ccccc13)CCCO2",
    "property": "logD",
    "recorded_result": 2.7
  },
  {
    "compound": "O=C(NCC1CCN(Cc2ccc(NS(=O)(=O)C3CCCCC3)cc2)CC1)c1cccc2c1OCCO2",
    "property": "logD",
    "recorded_result": 2.5
  },
  {
    "compound": "CCCCS(=O)(=O)Nc1ccc(CN2CCC(CNC(=O)c3cccc4c3OCCO4)CC2)cc1",
    "property": "logD",
    "recorded_result": 1.8
  },
  {
    "compound": "CS(=O)(=O)Nc1ccc(CN2CCC(CNC(=O)c3c4n(c5ccccc35)CCCO4)CC2)cc1",
    "property": "logD",
    "recorded_result": 1
  },
  {
    "compound": "CCCCS(=O)(=O)Nc1ccc(CN2CCC(CNC(=O)c3c4n(c5ccccc35)CCCO4)CC2)cc1",
    "property": "logD",
    "recorded_result": 2.2
  }
]

* * *

test: Elimination half life in Sprague-Dawley rat at 10 mg/kg, po or 1 mg/kg, iv after 30 mins to 6 hrs by LC/MS/MS method; assay type: ADME, organism-based; conditions: in vivo, read-out: beta t1/2

[
  {
    "molecule": "O=C(OCC1CCN(CC(O)CO)CC1)c1c2n(c3ccccc13)CCCO2 (stereo unspecified)",
    "readout_unit": "h",
    "half-life": 2.5
  }
]
